Measured growth inhibition accompanies every entry in the list below.
- ASSAY: NCI Yeast Anticancer Drug Screen. Data for the sgs1 mgt1 strain (AID 161);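 further: 0% = growth of cultures given vehicle only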
- CONDITION_SET: S. cerevisiae sgs1 mgt1 strain, at 50.0 µM, hits give high values
- Protocol: Growth inhibition of yeast strains with defined genetic alterations is measured as a screen for potential anti-cancer activity. Selected strains with alterations in DNA damage repair or cell cycle control were exposed to compounds and growth inhibition was measured relative to vehicle treated controls. The strain used in this assay is sgs1 mgt1
The panel holds about 79,000 compounds, 15% with a hit somewhere; the sample as a whole holds those more often.
API: value field is a number in %; no unit string.

CC(C(=O)O)c1ncnn1-c1ccccc1 (stereo not given) | 6.45
O=C1CC(C2(O)C(=O)Nc3ccc([N+](=O)[O-])cc32)c2ccccc21 (stereo not given) | -9.65
[N-]=[N+]=NC1(Cc2ccccc2)C(=O)c2cccc3c2N(CCC3)C1=O (stereo not given) | -0.65
CC1(C)CC2(C)NCCN2C(=S)N1 (stereo not given) | 15.8
CCCCC1=C(C)CCC1=O | 8.7
CCCCCC1OCC(C)(C)C(C(C)C)O1 (stereo not given) | -12.7
O=C(Nc1ccccc1)Oc1ccc(Cl)cc1Cc1ccccc1 | 99.8
c1ccc2c(c1)cnc1c3ccccc3ccc21 | -8.6

Give its growth inhibition value. Item: `Cn1cccc1/C=N/N=C(/N)NO`
-13.7

Give its growth inhibition value. Item: `Cc1cccc(N2CCN(S(C)(=O)=O)CC2)c1`
0.3

Give its growth inhibition value. Item: CC(N)CCCO (stereo not given)
0.75

Give its growth inhibition value. Item: `CCN(CC)CCN1C(=O)c2c(c(-c3ccccc3)c3ccccc3c2-c2ccccc2)C1=O`
21.6

Give its growth inhibition value. Item: `COC(=O)[C@H]1[C@H]2C[C@@H]3c4[nH]c5ccccc5c4CCN3C[C@H]2C[C@@H](O)[C@@H]1OC(=O)c1cc(OC)c(OC)c(OC)c1`
19.4
